# System: RXRa DBDmut IVT, anti-RXR (DBD mutation: RXRa K156A/R161A, NR concentration 90 nM)
# TEST_NAME: PBM binding z-score (relative to random genomic background probes); higher = stronger binding; sequences stand for … in GC…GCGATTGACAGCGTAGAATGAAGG
READOUT_NAME: PBM binding z-score

Return PBM binding z-score (reported value) for this sequence: `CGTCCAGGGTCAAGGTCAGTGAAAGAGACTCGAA` 2.77

Return PBM binding z-score (reported value) for this sequence: `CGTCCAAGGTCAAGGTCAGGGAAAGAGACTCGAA` 3.81

Return PBM binding z-score (reported value) for this sequence: `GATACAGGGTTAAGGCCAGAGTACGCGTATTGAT` -0.0819

Return PBM binding z-score (reported value) for this sequence: `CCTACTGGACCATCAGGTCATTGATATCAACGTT` 1.08

Return PBM binding z-score (reported value) for this sequence: `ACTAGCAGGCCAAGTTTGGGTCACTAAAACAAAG` -0.281

Return PBM binding z-score (reported value) for this sequence: `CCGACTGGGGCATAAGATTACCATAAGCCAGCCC` -0.222

Return PBM binding z-score (reported value) for this sequence: `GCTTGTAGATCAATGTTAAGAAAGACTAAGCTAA` 0.255

Return PBM binding z-score (reported value) for this sequence: `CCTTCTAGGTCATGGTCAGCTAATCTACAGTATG` 2.02

Return PBM binding z-score (reported value) for this sequence: `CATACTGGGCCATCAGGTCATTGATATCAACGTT` 0.904

Return PBM binding z-score (reported value) for this sequence: `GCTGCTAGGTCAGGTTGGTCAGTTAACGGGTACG` 0.795

Return PBM binding z-score (reported value) for this sequence: `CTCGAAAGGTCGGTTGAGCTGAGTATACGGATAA` 0.709

Return PBM binding z-score (reported value) for this sequence: `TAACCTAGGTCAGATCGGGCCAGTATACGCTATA` 0.17

Return PBM binding z-score (reported value) for this sequence: `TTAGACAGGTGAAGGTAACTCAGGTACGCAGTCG` -0.329

###

# Tested on: THRa:RXRa (NR concentration 90 nM, RXRa partner concentration 90 nM)
# TEST_NAME: PBM binding z-score (relative to random genomic background probes); higher = stronger binding; sequences stand for … in GC…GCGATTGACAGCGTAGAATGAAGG
Reported PBM binding z-score by item:
The answer should be a number; do not append a unit.

GET PBM binding z-score | system: THRa:RXRa (NR concentration 90 nM, RXRa partner concentration 90 nM) | item: `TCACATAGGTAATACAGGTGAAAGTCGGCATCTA` 0.928

GET PBM binding z-score | system: THRa:RXRa (NR concentration 90 nM, RXRa partner concentration 90 nM) | item: `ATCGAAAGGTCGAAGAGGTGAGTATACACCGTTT` 2.73

GET PBM binding z-score | system: THRa:RXRa (NR concentration 90 nM, RXRa partner concentration 90 nM) | item: `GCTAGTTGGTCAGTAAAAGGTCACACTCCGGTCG` 3.58

GET PBM binding z-score | system: THRa:RXRa (NR concentration 90 nM, RXRa partner concentration 90 nM) | item: `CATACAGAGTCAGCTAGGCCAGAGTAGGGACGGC` -0.152

GET PBM binding z-score | system: THRa:RXRa (NR concentration 90 nM, RXRa partner concentration 90 nM) | item: `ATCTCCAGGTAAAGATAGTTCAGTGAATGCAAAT` 1.06

GET PBM binding z-score | system: THRa:RXRa (NR concentration 90 nM, RXRa partner concentration 90 nM) | item: `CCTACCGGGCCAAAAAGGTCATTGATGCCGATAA` 3.29

GET PBM binding z-score | system: THRa:RXRa (NR concentration 90 nM, RXRa partner concentration 90 nM) | item: `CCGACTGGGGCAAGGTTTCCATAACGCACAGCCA` -0.0993

###

# Test system: FXR:RXRa (NR concentration 270 nM, RXRa partner concentration 90 nM)
# TEST_NAME: PBM binding z-score (relative to random genomic background probes); higher = stronger binding; sequences stand for … in GC…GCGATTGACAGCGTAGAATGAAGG
Reported PBM binding z-score by item:
The answer should be a number; do not append a unit.

Examples with answers:
Return PBM binding z-score (reported value) for this sequence: `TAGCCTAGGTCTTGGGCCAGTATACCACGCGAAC` -0.302

Return PBM binding z-score (reported value) for this sequence: `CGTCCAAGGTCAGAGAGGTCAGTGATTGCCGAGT` 5.58

Return PBM binding z-score (reported value) for this sequence: `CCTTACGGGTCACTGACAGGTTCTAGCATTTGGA` 4.75

Return PBM binding z-score (reported value) for this sequence: `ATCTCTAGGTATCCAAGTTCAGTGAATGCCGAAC` 0.313

Further cases:
Return PBM binding z-score (reported value) for this sequence: `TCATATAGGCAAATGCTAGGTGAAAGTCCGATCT` 0.729

Return PBM binding z-score (reported value) for this sequence: `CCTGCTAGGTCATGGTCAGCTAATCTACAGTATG` 3.81

Return PBM binding z-score (reported value) for this sequence: `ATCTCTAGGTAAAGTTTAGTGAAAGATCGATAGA` 0.0185

Return PBM binding z-score (reported value) for this sequence: `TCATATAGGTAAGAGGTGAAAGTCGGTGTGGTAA` 1.83

Return PBM binding z-score (reported value) for this sequence: `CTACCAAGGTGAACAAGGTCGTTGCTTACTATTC` 1.51

Return PBM binding z-score (reported value) for this sequence: `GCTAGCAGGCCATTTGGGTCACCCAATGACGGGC` 0.339

Return PBM binding z-score (reported value) for this sequence: `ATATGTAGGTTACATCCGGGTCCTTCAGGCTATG` 0.21

Return PBM binding z-score (reported value) for this sequence: `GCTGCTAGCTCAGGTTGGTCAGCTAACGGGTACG` -0.68

Return PBM binding z-score (reported value) for this sequence: `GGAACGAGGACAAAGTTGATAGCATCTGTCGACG` -0.0589

###

Reported PBM binding z-score by item:
# Test system: PPARg:RXRa DBDmut IVT, anti-RXR (DBD mutation: RXRa K156A/R161A, NR concentration 270 nM, RXRa partner concentration 90 nM)
# TEST_NAME: PBM binding z-score (relative to random genomic background probes); higher = stronger binding; sequences stand for … in GC…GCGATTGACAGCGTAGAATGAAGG
The answer should be a number; do not append a unit.

Examples with answers:
Return PBM binding z-score (reported value) for this sequence: `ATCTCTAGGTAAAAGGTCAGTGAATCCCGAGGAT` 3.67

Return PBM binding z-score (reported value) for this sequence: `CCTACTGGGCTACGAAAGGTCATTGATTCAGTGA` 3.98

Return PBM binding z-score (reported value) for this sequence: `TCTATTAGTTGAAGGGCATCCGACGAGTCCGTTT` 2.32

Further cases:
Return PBM binding z-score (reported value) for this sequence: `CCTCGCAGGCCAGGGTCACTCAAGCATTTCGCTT` -0.539

Return PBM binding z-score (reported value) for this sequence: `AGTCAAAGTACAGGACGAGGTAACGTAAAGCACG` -0.428

Return PBM binding z-score (reported value) for this sequence: `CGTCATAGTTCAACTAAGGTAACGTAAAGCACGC` 0.114

Return PBM binding z-score (reported value) for this sequence: `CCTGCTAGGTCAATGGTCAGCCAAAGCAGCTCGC` 4.18

###

# Test system: LXRb homodimer (NR concentration 270 nM)
# TEST_NAME: PBM binding z-score (relative to random genomic background probes); higher = stronger binding; sequences stand for … in GC…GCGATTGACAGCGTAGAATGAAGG
Kind request: treat 0.1 as inclusive, so PBM binding z-score at 0.1 or higher is y, anything lower is n.

Check out these entries, answers already filled in.
Hello, I need to know if `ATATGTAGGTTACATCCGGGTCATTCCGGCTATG` has measured PBM binding z-score not below 0.1. Thanks! y

Hello, I need to know if `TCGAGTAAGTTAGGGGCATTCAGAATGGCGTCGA` has measured PBM binding z-score not below 0.1. Thanks! n

Further cases:
Hello, I need to know if `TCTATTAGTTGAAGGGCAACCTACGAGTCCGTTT` has measured PBM binding z-score not below 0.1. Thanks! y

Hello, I need to know if `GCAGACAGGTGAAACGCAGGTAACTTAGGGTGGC` has measured PBM binding z-score not below 0.1. Thanks! n

Hello, I need to know if `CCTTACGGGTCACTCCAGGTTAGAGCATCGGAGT` has measured PBM binding z-score not below 0.1. Thanks! y

Hello, I need to know if `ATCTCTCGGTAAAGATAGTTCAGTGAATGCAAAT` has measured PBM binding z-score not below 0.1. Thanks! y

Hello, I need to know if `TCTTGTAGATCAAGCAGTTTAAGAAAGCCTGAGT` has measured PBM binding z-score not below 0.1. Thanks! n
